Tested on: HS 578T breast
assayInfo: NCI-60 one-dose screen, 48 h
runConditions: 10 µM
The panel holds about 83,000 compounds, 20% with a hit somewhere; the sample as a whole holds those more often. Activity calls are given as the source filed them. The calls were made as follows: active = growth percent below 10; inactive = the rest.
Please state which outcome applies, choosing from label 1 = active, label 0 = inactive

Worked cases, answers included:
molecule	labelClass
COc1cc(-c2nc3cc(Cl)c(Cl)cc3[nH]2)ccc1OCC(=O)NN	label 0
CCOC(=O)/C(C#N)=C(/C)C1CC1	label 0
CC(C)/C(=N/O)c1ccccc1	label 0
FC(F)(F)c1ccc(-c2cnc(Br)nc2NC2CCCCCC2)cc1	label 0
NC(=O)C1CCCN(Cc2c[nH]c3ccccc23)C1 (stereo not drawn)	label 0
Cc1cc(C)c(/C=C2\C(=O)Nc3ccc(NC(=O)CCCCCCC(=O)NO)cc32)[nH]1	label 0
Cn1c([N+](=O)[O-])cnc1/C=C1\Oc2ccc(Br)cc2C1=O	label 1
O=C(Cn1ccc(=O)[nH]c1=O)c1ccc([N+](=O)[O-])o1	label 0
COc1cc(C2=Nc3c/c(=C\c4c(O)[nH]c5ccc(Cl)cc45)ccc3=N2)cc(OC)c1OC	label 1
COc1ccc(-c2nnc(COc3ccc(NC(=O)Nc4ccccc4)cc3F)o2)cc1	label 0

Assay outcome for "CCc1ccc(-c2nnc(COc3ccc(-c4nc5ccc(C)cc5[nH]4)cc3OC)o2)cc1" : what was it? label 0

Lab log entry: "O=C(OCc1ncc(-c2ccc(C(F)(F)F)cc2)c(NC2CCCCCC2)n1)c1c(F)c(F)c(F)c(F)c1F" — outcome as called in the assay? label 0

What outcome does the record of this test show for NC1CCC(Nc2nc(NCc3ccc(-c4ccco4)nc3)c3ncn(C4CCCC4)c3n2)CC1 (stereo not drawn) ? label 0

###

System: SNB-19 CNS
assayInfo: NCI-60 one-dose screen, 48 h (100 = growth as untreated, 0 = no growth, -100 = all killed)
runConditions: 10 µM
About 83,000 compounds went through this panel and 20% of them were active in at least one assay; those are over-represented in the sample as a whole. Calls of active or inactive are those of the source. Rule for the calls: active = growth percent below 10; inactive = the rest.
measuredMetric: growth

Consider the following illustrative entries.
compound	growth
COc1ccc(-c2nc(-c3ccccc3)c(-c3ccccc3)[nH]2)cc1OC1CCCC1	66.4% (inactive)
CC(=O)Oc1ccc(C2=Cc3ccc(OC(C)=O)cc3OC2C)cc1 (centres undefined)	85.2% (inactive)
CCCN(CCC)CCCNC(=O)c1cc2c(-c3ccc(OC)c(OC)c3)nn(C)c2s1	35% (inactive)

Provide measured growth value, entry: "CC(C)OCc1cc(CN2CCN(c3cccc(Cl)c3)CC2)c(O)c2ncccc12" 19.6% (inactive)

Specify measured growth for "CC(C)c1[nH]nc2c(NCc3ccc(-c4ccccn4)cc3)nc(SCCN)nc12" . 12.2% (inactive)

Annotate the compound "CCCCCCCCCCCC(=O)NCCCN(C)C" with its measured growth. 102% (inactive)

Give a short answer stating reported growth for "O=C(NCCCl)c1cc(Cl)cc(Cl)c1" . 108% (inactive)

Find the measured growth of "CN(C)Cc1cccs1" and report it. 98.9% (inactive)

Return growth for the following compound: "CCCCCCCCCCCCCCCCCBr" 95.9% (inactive)

Indicate the recorded growth value for this compound: "CCOc1ccc(-n2cc(-c3ccc(N(C)C)cc3)[n+]3c2CCCCC3)cc1" 20.3% (inactive)

Please report the measured growth for "COc1cccc(-c2nnc(COc3ccc(-c4nc5ccc(C)cc5[nH]4)cc3OC)o2)c1" 69.6% (inactive)

Quick one: give measured growth for "O=[N+]([O-])c1ccc(Br)o1" 107% (inactive)
